// Ratio lookup, one value per entry
Biological target: DNA topoisomerase 2-alpha (Homo sapiens) (UniProt P11388)
Sequence (P11388 whole entry): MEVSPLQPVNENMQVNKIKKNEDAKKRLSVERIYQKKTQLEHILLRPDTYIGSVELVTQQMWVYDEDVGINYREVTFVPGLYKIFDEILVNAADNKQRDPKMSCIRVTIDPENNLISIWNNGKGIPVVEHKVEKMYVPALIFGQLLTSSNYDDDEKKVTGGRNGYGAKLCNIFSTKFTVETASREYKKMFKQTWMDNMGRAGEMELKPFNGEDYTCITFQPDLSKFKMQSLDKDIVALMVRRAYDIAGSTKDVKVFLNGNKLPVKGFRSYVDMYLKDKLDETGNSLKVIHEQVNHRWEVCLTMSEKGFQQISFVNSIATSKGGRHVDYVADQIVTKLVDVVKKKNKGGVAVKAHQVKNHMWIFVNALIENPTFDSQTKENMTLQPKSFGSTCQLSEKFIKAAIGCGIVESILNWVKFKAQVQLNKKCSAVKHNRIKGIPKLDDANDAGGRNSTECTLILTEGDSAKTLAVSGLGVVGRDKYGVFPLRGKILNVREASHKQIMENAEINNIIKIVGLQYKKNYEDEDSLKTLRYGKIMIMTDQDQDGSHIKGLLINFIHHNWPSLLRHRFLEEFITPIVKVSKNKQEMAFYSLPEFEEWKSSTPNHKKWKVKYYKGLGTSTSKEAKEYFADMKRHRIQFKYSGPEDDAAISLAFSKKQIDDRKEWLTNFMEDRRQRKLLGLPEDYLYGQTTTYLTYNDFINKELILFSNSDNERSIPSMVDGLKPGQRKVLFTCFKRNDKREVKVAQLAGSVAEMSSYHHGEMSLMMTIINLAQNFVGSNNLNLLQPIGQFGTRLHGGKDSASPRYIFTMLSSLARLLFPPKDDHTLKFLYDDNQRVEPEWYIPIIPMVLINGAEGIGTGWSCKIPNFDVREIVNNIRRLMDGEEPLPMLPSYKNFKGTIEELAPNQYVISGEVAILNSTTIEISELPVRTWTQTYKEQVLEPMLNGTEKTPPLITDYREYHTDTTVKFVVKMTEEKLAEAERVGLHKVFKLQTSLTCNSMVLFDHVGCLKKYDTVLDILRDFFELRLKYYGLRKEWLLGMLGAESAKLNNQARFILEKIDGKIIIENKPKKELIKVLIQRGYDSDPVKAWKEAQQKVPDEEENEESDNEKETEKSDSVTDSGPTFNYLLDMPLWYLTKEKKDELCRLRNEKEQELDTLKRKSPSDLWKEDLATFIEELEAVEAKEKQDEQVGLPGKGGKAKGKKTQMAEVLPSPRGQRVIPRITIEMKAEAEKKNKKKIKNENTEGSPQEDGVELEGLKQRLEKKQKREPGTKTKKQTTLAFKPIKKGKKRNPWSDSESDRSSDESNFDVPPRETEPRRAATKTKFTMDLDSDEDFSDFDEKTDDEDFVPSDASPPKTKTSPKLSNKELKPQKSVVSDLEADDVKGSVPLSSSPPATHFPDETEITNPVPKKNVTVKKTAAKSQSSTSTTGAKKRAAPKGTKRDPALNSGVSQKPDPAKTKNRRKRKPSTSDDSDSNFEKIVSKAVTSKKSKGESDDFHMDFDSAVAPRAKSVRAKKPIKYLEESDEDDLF
Assay: Inhibition of human recombinant topoisomerase-2alpha assessed as inhibition of relaxation of supercoiled pBR322 plasmid DNA at 20 uM measured after 1 hr by ethidium bromide staining based agarose gel electrophoresis relative to control etoposide
The answer should be a number; do not append a unit.

Past entries and their recorded results:
| SUBSTANCE SMILES | Ratio |
| --- | --- |
| Oc1ccc(-c2cc(-c3ccccc3O)c3oc4cc(O)ccc4c3n2)cc1 | 0.73 |
| Oc1ccc2c(c1)oc1c(-c3ccccc3O)cc(-c3ccccc3O)nc12 | 0.96 |
| Oc1cccc(-c2cc(-c3ccccc3)c3oc4cc(O)ccc4c3n2)c1 | 0.82 |
| Oc1ccc(-c2cc(-c3cccc(O)c3)c3oc4cc(O)ccc4c3n2)cc1 | 1.11 |
| Oc1ccc2c(c1)oc1c(-c3ccccc3)cc(-c3ccccc3O)nc12 | 1.33 |

Form field Ratio, entry Oc1ccc(-c2cc(-c3ccccc3O)nc3c2oc2cc(O)ccc23)cc1 : 1.42

Form field Ratio, entry Oc1ccc(-c2cc(-c3cccc(O)c3)nc3c2oc2cc(O)ccc23)cc1 : 0.91

Form field Ratio, entry Oc1cccc(-c2cc(-c3ccccc3O)nc3c2oc2cc(O)ccc23)c1 : 1.53

Form field Ratio, entry Oc1cccc(-c2cc(-c3ccccc3)nc3c2oc2cc(O)ccc23)c1 : 0.84
